Where do the numbers come from? From ChEMBL document CHEMBL1828562.

Tested on: Human immunodeficiency virus 1
MEASUREMENT_PROTOCOL: Antiviral activity against HIV1 infected in human CEM-T4 cells assessed as reduction in viral protein p24 production preincubated for 24 hrs measured after 8 days by MTT assay
Type: functional, organism-based
PARTICULARS: Human immunodeficiency virus 1, CEM-T4
Examples of compounds with documented log10 of EC90 follow.
ATTRIBUTE_MEASURED: log10 of EC90 (log10 of the value in nM)

{"TEST_SMILES": "O=c1ccn([C@H]2CC[C@@H](COP(=O)(O)Nc3ccncc3)O2)c(=O)[nH]1", "log10 of EC90": 3.13}
{"TEST_SMILES": "Cc1cn([C@H]2C[C@H](N=[N+]=[N-])[C@@H](CO)O2)c(=O)[nH]c1=O", "log10 of EC90": 0.70}
{"TEST_SMILES": "CCN(CC)CC.Cc1cn([C@H]2C[C@H](N=[N+]=[N-])[C@@H](COP(=O)(O)Nc3ccc(Cl)cc3)O2)c(=O)[nH]c1=O", "log10 of EC90": 2.00}
{"TEST_SMILES": "Cc1cn([C@H]2C[C@H](N=[N+]=[N-])[C@@H](COP(=O)(O)Nc3cccnc3)O2)c(=O)[nH]c1=O", "log10 of EC90": 0.95}
{"TEST_SMILES": "Cc1cn([C@H]2C[C@H](N=[N+]=[N-])[C@@H](COP(=O)(O)Nc3ccncc3)O2)c(=O)[nH]c1=O", "log10 of EC90": 0.78}

---

MEASUREMENT_PROTOCOL: Cytotoxicity against human CEM-T4 cells assessed as cell viability after 7 days by MTT assay
Format: cell-based

{"MOLECULE": "CCN(CC)CC.Cc1cn([C@H]2C[C@H](N=[N+]=[N-])[C@@H](COP(=O)(O)Nc3ccc(Cl)cc3)O2)c(=O)[nH]c1=O", "RELATION_QUALIFIER": "=", "CC50 at 168 h, µM": 290}
{"MOLECULE": "Cc1cn([C@H]2C[C@H](N=[N+]=[N-])[C@@H](COP(=O)(O)O)O2)c(=O)[nH]c1=O [AZIDOTHYMIDINE MONOPHOSPHATE]", "RELATION_QUALIFIER": "=", "CC50 at 168 h, µM": 100}
{"MOLECULE": "CCN(CC)CC.Cc1cn([C@H]2C[C@H](N=[N+]=[N-])[C@@H](COP(=O)(O)Nc3ccccc3)O2)c(=O)[nH]c1=O", "RELATION_QUALIFIER": ">", "CC50 at 168 h, µM": 200}
{"MOLECULE": "Cc1cn([C@H]2C[C@H](N=[N+]=[N-])[C@@H](CO)O2)c(=O)[nH]c1=O [ZIDOVUDINE]", "RELATION_QUALIFIER": ">", "CC50 at 168 h, µM": 200}

---

Test system: Human immunodeficiency virus 1
MEASUREMENT_PROTOCOL: Antiviral activity against HIV1 infected in human CEM/TK- cells assessed as inhibition of virus-induced cytopathogenicity
Format: functional, organism-based
Activity calls are given as the source filed them. The rule behind the calls is not given here.

{"TEST_SMILES": "O=c1ccn([C@H]2CC[C@@H](COP(=O)(O)Nc3ccccc3)O2)c(=O)[nH]1", "STUDY_TARGET": "Human immunodeficiency virus 1", "inhibition": "inactive"}
{"TEST_SMILES": "O=c1ccn([C@H]2CC[C@@H](COP(=O)(O)Nc3ccncc3)O2)c(=O)[nH]1", "STUDY_TARGET": "Human immunodeficiency virus 1", "inhibition": "inactive"}
{"TEST_SMILES": "CCN(CC)CC.Cc1cn([C@H]2C[C@H](N=[N+]=[N-])[C@@H](COP(=O)(O)Nc3ccccc3)O2)c(=O)[nH]c1=O", "STUDY_TARGET": "Human immunodeficiency virus 1", "inhibition": "inactive"}
